- tgt: PRMT5/MEP50 complex (Homo sapiens, UniProt O14744)
- Sequence (O14744 whole entry): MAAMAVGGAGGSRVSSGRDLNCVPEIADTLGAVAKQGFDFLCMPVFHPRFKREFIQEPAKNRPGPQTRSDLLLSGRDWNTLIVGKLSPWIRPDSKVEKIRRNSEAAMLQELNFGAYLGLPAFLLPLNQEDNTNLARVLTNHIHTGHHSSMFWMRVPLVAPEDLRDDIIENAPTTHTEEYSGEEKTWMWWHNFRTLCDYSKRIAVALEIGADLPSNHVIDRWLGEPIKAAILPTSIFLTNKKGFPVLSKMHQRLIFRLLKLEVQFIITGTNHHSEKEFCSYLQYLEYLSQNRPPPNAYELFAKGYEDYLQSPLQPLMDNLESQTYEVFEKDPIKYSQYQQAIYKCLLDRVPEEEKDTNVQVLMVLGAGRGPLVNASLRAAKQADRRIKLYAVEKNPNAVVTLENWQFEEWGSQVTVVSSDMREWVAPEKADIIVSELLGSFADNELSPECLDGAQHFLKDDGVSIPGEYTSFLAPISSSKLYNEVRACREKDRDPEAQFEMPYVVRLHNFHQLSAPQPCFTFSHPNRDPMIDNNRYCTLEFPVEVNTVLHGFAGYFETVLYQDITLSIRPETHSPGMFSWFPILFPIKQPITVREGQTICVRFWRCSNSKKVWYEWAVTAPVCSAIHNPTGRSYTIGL
- Sequence (Q9BQA1 whole entry, further chain): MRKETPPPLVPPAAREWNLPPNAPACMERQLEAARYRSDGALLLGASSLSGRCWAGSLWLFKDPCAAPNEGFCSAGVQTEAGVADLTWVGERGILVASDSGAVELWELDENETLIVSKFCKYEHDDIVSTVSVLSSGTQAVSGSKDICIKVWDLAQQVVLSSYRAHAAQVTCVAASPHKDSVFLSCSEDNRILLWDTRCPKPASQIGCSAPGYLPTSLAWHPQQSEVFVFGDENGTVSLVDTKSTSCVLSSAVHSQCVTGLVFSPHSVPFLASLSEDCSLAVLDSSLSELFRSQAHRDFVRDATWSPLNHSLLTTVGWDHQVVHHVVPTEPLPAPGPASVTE
- assay-protocol: Chemiluminescent Assay: A PRMT5 chemiluminescent assay was used to measure the IC50 activity of PRMT5 of the compounds of Examples 1A to 7 above. Biotinylated histone peptides were synthesized and attached to 384-well plates. Compound serial dilutions were performed and added to the assay plate. Histone H4 monomethyl R3 antibody was obtained from Abcam. A master mix for each well was prepared and human PRMT5/MEP50 (expressed in HEK293 cells) diluted in assay buffer to a concentration of 5 ng/μL. The reaction was incubated and slowly rotated for 60 minutes at the point of PRMT5/MEP50 addition. The supernatant from the wells was removed and blocking buffer was added to each well and rotated for 10 minutes. The primary antibody was diluted and added to every well for 60 minutes, before it was removed and the wells washed. The horse raddish peroxidase (HRP)-coupled secondary antibody was diluted and added to each well with an incubation time of 30 minutes. The HRP chemiluminescent substrate was added to every well. The plate was read on a Flourstar Omega BMG Labtech instrument (Ortenberg, Germany) and the analysis of IC50 was performed using the Flourstar Omega BMG Labtech software.
quantity-kind: pIC50
Reminder that pIC50 is minus the log10 of a molar concentration.

Give the reported value of pIC50 for this record: O=C(OCC(O)CN1CCc2ccccc2C1)N1CCCC(c2ccccc2)C1 (stereo unspecified)
7.12
